- MEASURED ON: σ2 receptor (Rattus norvegicus, UniProt Q5U3Y7)
- Sequence (Q5U3Y7 1-176): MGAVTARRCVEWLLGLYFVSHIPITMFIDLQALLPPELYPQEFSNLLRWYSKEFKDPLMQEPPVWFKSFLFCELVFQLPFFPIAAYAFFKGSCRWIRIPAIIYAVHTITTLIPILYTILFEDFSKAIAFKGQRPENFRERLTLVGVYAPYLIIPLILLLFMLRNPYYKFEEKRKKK
VALUE KIND: Ki (nM)
Kindly answer with a numeric value in nM, unit omitted.

Record c1ccc(CNC(CCC[C@H]2CCO[C@@H](c3ccccc3)O2)c2ccccc2)cc1 (relative stereo) [26a] ; system σ2 receptor (Rattus norvegicus, UniProt Q5U3Y7); Ki = 907

Record c1ccc(CNCCCC[C@H]2CCO[C@@H](c3ccccc3)O2)cc1 (relative stereo) [17a] ; system σ2 receptor (Rattus norvegicus, UniProt Q5U3Y7); Ki = 213

Record CC[C@]1(c2ccccc2)OCC[C@H](CCCCNCc2ccccc2)O1 (relative stereo) [17b] ; system σ2 receptor (Rattus norvegicus, UniProt Q5U3Y7); Ki = 22

Record CC[C@]1(c2ccccc2)OCC[C@H](CCCCNC)O1 (relative stereo) [16b] ; system σ2 receptor (Rattus norvegicus, UniProt Q5U3Y7); Ki = 311

Record CCC1(c2ccccc2)OCCC(CCCC(NC)c2ccccc2)O1 (centres unmarked) [25b] ; system σ2 receptor (Rattus norvegicus, UniProt Q5U3Y7); Ki = 255

Record CN(CCCC[C@H]1CCO[C@@H](c2ccccc2)O1)Cc1ccccc1 (relative stereo) [18a] ; system σ2 receptor (Rattus norvegicus, UniProt Q5U3Y7); Ki = 31

Record CC[C@]1(c2ccccc2)OCC[C@H](CCCCN(C)Cc2ccccc2)O1 (relative stereo) [18b] ; system σ2 receptor (Rattus norvegicus, UniProt Q5U3Y7); Ki = 24

Record CC[C@]1(c2ccccc2)OCC[C@H](CCCCN2CCCC2)O1 (relative stereo) [19b] ; system σ2 receptor (Rattus norvegicus, UniProt Q5U3Y7); Ki = 57

Record CCC1(c2ccccc2)OCCC(CCCC(N)c2ccccc2)O1 (centres unmarked) [24b] ; system σ2 receptor (Rattus norvegicus, UniProt Q5U3Y7); Ki = 170

Record CCC1(c2ccccc2)OCCC(CCCC(c2ccccc2)N2CCCC2)O1 (centres unmarked) [27b] ; system σ2 receptor (Rattus norvegicus, UniProt Q5U3Y7); Ki = 64

Record CCC1(c2ccccc2)OCCC(CCCC(NCc2ccccc2)c2ccccc2)O1 (centres unmarked) [26b] ; system σ2 receptor (Rattus norvegicus, UniProt Q5U3Y7); Ki = 139
